organism: Mus musculus; assay: Ability to activate CBA/CaJ Mice spleen cells to proliferate in vitro by measuring new DNA synthesis in a [3H]thymidine incorporation assay at 0.05 mM; assay type: functional
Would you mind telling me the reported CPM of each entry?
Answers are plain numbers.

Nc1nc(O)c2sc(=S)n(C3O[C@H](CO)[C@@H](O)[C@H]3O)c2n1 (stereo not given in full)	15711
Nc1nc(O)c2nc(S)n([C@@H]3O[C@H](CO)[C@@H](O)[C@H]3O)c2n1	5372

For the 3 compounds below, give their CPM values.
1. Cn1c(=O)n(C2O[C@H](CO)[C@@H](O)[C@H]2O)c2nc(N)nc(O)c21 (stereo not given in full)
2. Nc1nc2c(nc(Br)n2[C@@H]2O[C@H](CO)[C@@H](O)[C@H]2O)c(=O)[nH]1
3. Nc1nc2c(sc(=O)n2[C@@H]2O[C@H](CO)[C@@H](O)[C@H]2O)c(=O)[nH]1

1: 35980; 2: 4835; 3: 54150

---

species on record: Mus musculus; test: Ability to activate CBA/CaJ Mice spleen cells to proliferate in vitro by measuring new DNA synthesis in a [3H]thymidine incorporation assay at 0 mM; type: functional
measure: CPM
One number for each entry.

Below are worked cases with known answers.
Cn1c(=O)n(C2O[C@H](CO)[C@@H](O)[C@H]2O)c2nc(N)nc(O)c21 (stereo not given in full)	2000
Nc1nc2c(nc(Br)n2[C@@H]2O[C@H](CO)[C@@H](O)[C@H]2O)c(=O)[nH]1	5204
Nc1nc(O)c2sc(=S)n(C3O[C@H](CO)[C@@H](O)[C@H]3O)c2n1 (stereo not given in full)	3111
Nc1nc2c(sc(=O)n2[C@@H]2O[C@H](CO)[C@@H](O)[C@H]2O)c(=O)[nH]1 [ISATORIBINE]	2000

Sample `Nc1nc(O)c2nc(S)n([C@@H]3O[C@H](CO)[C@@H](O)[C@H]3O)c2n1` — what was its CPM?
3633

---

species: Mus musculus; assay: Ability to activate CBA/CaJ Mice spleen cells to proliferate in vitro by measuring new DNA synthesis in a [3H]thymidine incorporation assay at 0.20 mM; type: functional
measure: CPM
One number for each entry.

Below are worked cases with known answers.
Nc1nc2c(nc(Br)n2[C@@H]2O[C@H](CO)[C@@H](O)[C@H]2O)c(=O)[nH]1	9199
Nc1nc2c(sc(=O)n2[C@@H]2O[C@H](CO)[C@@H](O)[C@H]2O)c(=O)[nH]1	96680
Nc1nc(O)c2sc(=S)n(C3O[C@H](CO)[C@@H](O)[C@H]3O)c2n1 (stereo not given in full)	43779
Nc1nc(O)c2nc(S)n([C@@H]3O[C@H](CO)[C@@H](O)[C@H]3O)c2n1	23092

Proceeding to the next compound to report its CPM.
Sample Cn1c(=O)n(C2O[C@H](CO)[C@@H](O)[C@H]2O)c2nc(N)nc(O)c21 (stereo not given in full) — what was its CPM?
72000

---

species: Mus musculus; experiment: Ability to activate CBA/CaJ Mice spleen cells to proliferate in vitro by measuring new DNA synthesis in a [3H]thymidine incorporation assay at 0.01 mM; format: functional
measure: CPM
Give bare numbers.

Below are worked cases with known answers.
Cn1c(=O)n(C2O[C@H](CO)[C@@H](O)[C@H]2O)c2nc(N)nc(O)c21 (stereo not given in full)	6012
Nc1nc(O)c2nc(S)n([C@@H]3O[C@H](CO)[C@@H](O)[C@H]3O)c2n1	3911
Nc1nc2c(sc(=O)n2[C@@H]2O[C@H](CO)[C@@H](O)[C@H]2O)c(=O)[nH]1 [ISATORIBINE]	12000
Nc1nc2c(nc(Br)n2[C@@H]2O[C@H](CO)[C@@H](O)[C@H]2O)c(=O)[nH]1	4387

Proceeding to the next compound to report its CPM.
Sample Nc1nc(O)c2sc(=S)n(C3O[C@H](CO)[C@@H](O)[C@H]3O)c2n1 (stereo not given in full) — what was its CPM?
4230
